- Assay system: Butyrophilin Subfamily 2 Member A1 (BTN2A1) (human) (UniProt Q7KYR7)
- Experiment description: cell-based or functional assay
Endpoint label: IFNγ production relative to GAB-AJ8s (GAB expression media, MZ1851RC, 30 µM pamidronate) (fold)

Binder	Readout number
GAB-AJ8s-Vγ9 mutation T81I (TCR, part only; not given: CDR3 delta, constant parts, anti-CD3 scFv, part only) TCR gamma, part: AGHLEQPQISSTKTLSKTARLECVVSGITISATSVYWYRERPGEVIQFLVSISYDGTVRKESGIPSGKFEVDYIPETSTSILTIHNVEKQDIATYYCALWE TCR delta, part: AIELVPEHQTVPVSIGVPATLRCSMKGEAIGNYYINWYRKTQGNTMTFIYREKDIYGPGFKDNFQGDIDIAKNLAVLKILAPSERDEGSYYCACDT	2
GAB-AJ8sγT83I (TCR, part only; not given: CDR3 delta, constant parts, anti-CD3 scFv, part only) TCR gamma, part: AGHLEQPQISSTKTLSKTARLECVVSGITISATSVYWYRERPGEVIQFLVSISYDGTVRKESGIPSGKFEVDYIPETSTSTLIIHNVEKQDIATYYCALWE TCR delta, part: AIELVPEHQTVPVSIGVPATLRCSMKGEAIGNYYINWYRKTQGNTMTFIYREKDIYGPGFKDNFQGDIDIAKNLAVLKILAPSERDEGSYYCACDT	8.8
GAB-AJ8s-Vγ9 mutation T83L (TCR, part only; not given: CDR3 delta, constant parts, anti-CD3 scFv, part only) TCR gamma, part: AGHLEQPQISSTKTLSKTARLECVVSGITISATSVYWYRERPGEVIQFLVSISYDGTVRKESGIPSGKFEVDYIPETSTSTLLIHNVEKQDIATYYCALWE TCR delta, part: AIELVPEHQTVPVSIGVPATLRCSMKGEAIGNYYINWYRKTQGNTMTFIYREKDIYGPGFKDNFQGDIDIAKNLAVLKILAPSERDEGSYYCACDT	2
GAB-AJ8sγT81H (TCR, part only; not given: CDR3 delta, constant parts, anti-CD3 scFv, part only) TCR gamma, part: AGHLEQPQISSTKTLSKTARLWCVVSGITISATSVYWYRERPGEVIQFLVSISYDGTVRKESGIPSGKFEVDYIPETSTSTLTIHNVEKQDIATYYCALWE TCR delta, part: AIELVPEHQTVPVSIGVPATLRCSMKGEAIGNYYINWYRKTQGNTMTFIYREKDIYGPGFKDNFQGDIDIAKNLAVLKILAPSERDEGSYYCACDT	4.2

# credit: patent US20260042836A1
